Assay: E-selectin induction blockers in HUVEC – imaging, immunofluorescence, high content, primary screen (AID 1246);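 also: 0% = TNF-stimulated DMSO wells and 100% = unstimulated control wells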
Conditions: HUVEC TNFa-induced E-selectin immunofluorescence, at 2 µM
The campaign covered roughly 120,000 compounds. About 840 (0.7%) were called active.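 The calls were made as follows: active = inhibition above the batch mean plus 3 SD, and confirmed as a hit on visual image review (cut at about 43% in these data); inconclusive = passes the inhibition cutoff but fails visual image review; inactive = the rest.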 Shown is part of a subset that was picked to be rich in actives.
Hi! Could you answer with just one of these? 1 (yes) = active, 0 (no) = inactive

Example entries and their recorded answers appear below.
Data request: Fill in: this test's call for O=C(NCc1nnc(SCC(=O)N2CCCc3ccccc32)o1)c1ccccc1F is ___
Data returned: 0 (no)

Data request: So what was the verdict on Cc1nccn1CCCNC(=O)CC1C(=O)NCCN1Cc1ccc(Cl)c(F)c1 (centres undefined) in this test?
Data returned: 0 (no)

Data request: Outcome logged for Cc1cc(C)n(-c2nnc(N3CCN(c4ccccc4)CC3)nn2)n1 in this assay:
Data returned: 0 (no)

Data request: Returns: the outcome recorded for C/[N+]([O-])=C\c1ccc([N+](=O)[O-])o1 in this assay.
Data returned: 0 (no)

Data request: Each compound tested received a call. Report the one for COc1ccc(NC(=O)CN2C(=O)CSC2=O)cc1 .
Data returned: 0 (no)

More entries:
Data request: Lab log entry: COc1ccccc1CCNC(=O)CSc1nnc2ccc(-c3cccnc3)nn12 — outcome as called in the assay?
Data returned: 0 (no)

Data request: What did the test return for Cn1c(SCC(=O)N2CCCc3ccccc32)nc2ccccc2c1=O ?
Data returned: 0 (no)

Data request: Outcome? COc1ccc(F)c(-c2nc(CN3CCC(c4ccccc4)CC3)c(C)o2)c1
Data returned: 0 (no)

Data request: Called result for CC1COc2ccccc2N1S(=O)(=O)c1ccccc1 (centres undefined)
Data returned: 0 (no)

Data request: Short answer needed: outcome of this test for CCCNC(=S)N1CCCC(c2nc3ccccc3[nH]2)C1 (centres undefined) ?
Data returned: 0 (no)

Data request: Dear all, I need the recorded test outcome for COc1ccc(Cn2c(=O)cc(C)[nH]c2=S)cc1 , thank you.
Data returned: 0 (no)

Data request: Lab log entry: CCOC(=O)N1CCN(C(=O)CSc2nc(C)nc3c2c(=O)n(C)c(=O)n3C)CC1 — outcome as called in the assay?
Data returned: 0 (no)
